Target: h-GABA-A α5β3γ2 (Homo sapiens, UniProt P18507+P31644)
Construct: expressed in transfected cells; host or cells: Xenopus laevis oocytes, micro-injected with subunit RNA
Experiment: [3H]flumazenil competition binding assay on membranes of HEK293 cells expressing GABAA receptors
Settings: Table 1; displacement of [3H]-Flumazenil (0.5 nM), HEK293 cells expressing human receptors, means of two determinations
This section presents compounds with their documented Ki values.
State just the number; it will be interpreted in nM.

Past entries and their recorded results:
structure_notation=Cn1nnc(-c2ccc(Cl)cc2F)c1Cn1ncc(-c2cnn(CC(F)F)c2)cc1=O quantity_unit=nM numeric_result=11.4
structure_notation=Cn1nnc(-c2ccc(Cl)cc2F)c1Cn1ncc(N2CC(OCC(F)F)C2)cc1=O quantity_unit=nM numeric_result=6.4
structure_notation=Cn1nnc(-c2ccc(Cl)cc2F)c1Cn1ncc(N2CC(OC3CCC3)C2)cc1=O quantity_unit=nM numeric_result=8.3
structure_notation=Cn1nnc(-c2ccc(C(F)(F)F)cc2F)c1Cn1ncc(N2CC(Oc3cccnn3)C2)cc1=O quantity_unit=nM numeric_result=14.7
structure_notation=COc1ncc(-c2cnn(Cc3c(-c4ccc(Cl)cc4F)nnn3C)c(=O)c2)cc1C quantity_unit=nM numeric_result=11.8

// moving on: another record for Ki
# lookup: Ki of Cn1nnc(-c2ccc(Cl)cc2F)c1Cn1ncc(N2CC(Oc3ccccn3)C2)cc1=O
7.9

---

Target: h-GABA-A α5β3γ2 (Homo sapiens, UniProt P18507+P31644)
Construct: expressed in transfected cells; host or cells: Xenopus laevis oocytes, micro-injected with subunit RNA
Assay: [3H]flumazenil competition binding assay on membranes of HEK293 cells expressing GABAA receptors
Details: Table 1; displacement of [3H]-Flumazenil (0.5 nM), HEK293 cells expressing human receptors, means of two determinations
Decision: Ki beneath 10 nM gives TRUE; Ki meeting or exceeding 10 nM gives FALSE.

Reference set, count: 8
structure_notation=COc1ncccc1N1CCN(c2cnn(Cc3c(C)nnn3-c3ccc(Cl)cc3F)c(=O)c2)CC1 discrete_label=FALSE
structure_notation=Cn1nnc(-c2ccc(Cl)cc2F)c1Cn1ncc(N2CC(Oc3cccnn3)C2)cc1=O discrete_label=FALSE
structure_notation=C[C@@H]1CN(c2cnn(Cc3c(-c4ccc(Cl)nc4)nnn3C)c(=O)c2)C[C@H](C)O1 discrete_label=FALSE
structure_notation=CCn1nnc(-c2ccc(Cl)cc2F)c1Cn1ncc(-c2cnc(OC)c(Cl)c2)cc1=O discrete_label=TRUE
structure_notation=CCn1nnc(-c2ccc(Cl)cc2F)c1Cn1ncc(N2CC(OCC(F)F)C2)cc1=O discrete_label=FALSE
structure_notation=COc1cc(-c2cnn(Cc3c(-c4ccc(Cl)cc4F)nnn3C)c(=O)c2)cnc1Cl discrete_label=FALSE
structure_notation=CC(C)OC1CN(c2cnn(Cc3c(-c4ccc(Cl)cc4F)nnn3C)c(=O)c2)C1 discrete_label=TRUE
structure_notation=COc1ccc(-c2cnn(Cc3c(-c4ccc(Cl)cc4F)nnn3C)c(=O)c2)cn1 discrete_label=TRUE

Proceed to the following item.
Quick check: Ki of Cn1nnc(-c2ccc(Cl)cc2F)c1Cn1ncc(N2CCN(C3CC3)CC2)cc1=O under 10 nM?
FALSE

---

Molecular target: h-GABA-A α5β3γ2 (Homo sapiens, UniProt P18507+P31644)
Construct: expressed in transfected cells; host or cells: Xenopus laevis oocytes, micro-injected with subunit RNA
Experiment: [3H]flumazenil competition binding assay on membranes of HEK293 cells expressing GABAA receptors
Conditions: Table 1; displacement of [3H]-Flumazenil (0.5 nM), HEK293 cells expressing human receptors, means of two determinations
measurement.type: Ki (nM)
State just the number; it will be interpreted in nM.

structure_notation=Cn1nnc(-c2ccc(Cl)cc2F)c1Cn1ncc(N2CC(Oc3ccnc(Cl)c3)C2)cc1=O numeric_result=5.8

// moving on: another record for Ki
# lookup: Ki of COc1ncc(-c2cnn(Cc3c(-c4ccc(Cl)cc4F)nnn3C)c(=O)c2)cc1Cl
4.3
